run-description: in vitro
applied-conditions: rat, microsomes, pH 7.4
Recorded microsomal CLint at 1 μM for the following compounds

{"compound": "CC(C)c1cc(Oc2c(Cl)cc(-n3nc(C#N)c(=O)[nH]c3=O)cc2Cl)n[nH]c1=O [Control compound 2, MGL-3196, reference compound]", "microsomal CLint at 1 μM": "4.5 µL/min/mg"}

Lab note: next compound to report on.
Prompt: # lookup: microsomal CLint at 1 μM of `CC(C)c1cc(Oc2c(Cl)cc(-n3nc(CF)c(=O)[nH]c3=O)cc2Cl)n[nH]c1=O`
Response: 4.7 µL/min/mg

###

study-target: THRα (Homo sapiens)
Sequence (P10827 163-410 isoform P10827-2 limits assumed, other chains not shown): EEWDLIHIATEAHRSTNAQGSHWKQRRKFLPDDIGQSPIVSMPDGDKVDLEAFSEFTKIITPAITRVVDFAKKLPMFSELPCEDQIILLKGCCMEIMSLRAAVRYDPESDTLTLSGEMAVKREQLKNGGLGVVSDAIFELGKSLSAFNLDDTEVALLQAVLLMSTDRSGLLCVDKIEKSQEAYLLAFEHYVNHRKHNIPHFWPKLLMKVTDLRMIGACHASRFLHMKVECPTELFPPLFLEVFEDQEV
Sequence (P19793 whole entry partner, other chains not shown): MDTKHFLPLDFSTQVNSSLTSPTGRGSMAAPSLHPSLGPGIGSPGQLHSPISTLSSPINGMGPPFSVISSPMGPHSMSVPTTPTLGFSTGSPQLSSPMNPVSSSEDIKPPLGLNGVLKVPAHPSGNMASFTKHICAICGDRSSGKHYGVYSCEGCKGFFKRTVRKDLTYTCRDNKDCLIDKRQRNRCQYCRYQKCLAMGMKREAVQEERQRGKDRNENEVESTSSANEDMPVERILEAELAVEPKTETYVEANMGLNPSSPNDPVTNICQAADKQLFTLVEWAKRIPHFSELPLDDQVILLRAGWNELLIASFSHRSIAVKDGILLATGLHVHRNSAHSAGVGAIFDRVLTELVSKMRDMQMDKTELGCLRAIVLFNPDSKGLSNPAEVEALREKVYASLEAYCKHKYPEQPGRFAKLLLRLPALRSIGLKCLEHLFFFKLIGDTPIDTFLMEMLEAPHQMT
run-description: THRα binding assay (TR-FRET co-activating peptide recruitment)
Type: biochemical
applied-conditions: THRα instead of THRβ, agonistic effect
recorded-metric: Emax
Note: state the figure and append the unit.

{"line-notation": "O=c1[nH]nc(Oc2c(Cl)cc(-n3nc(CF)c(=O)[nH]c3=O)cc2Cl)cc1C1CCCCC1", "Emax": "123%"}

Prompt: # lookup: Emax of `CC(C)c1cc(Oc2c(Cl)cc(-n3nc(CF)c(=O)[nH]c3=O)cc2Cl)n[nH]c1=O`
Response: 107%

Prompt: And then `O=c1[nH]nc(Oc2c(Cl)cc(-n3nc(CF)c(=O)[nH]c3=O)cc2Cl)cc1C1CC1` , what is it?
Response: 127%

Prompt: And then `O=c1[nH]nc(Oc2c(Cl)cc(-n3nc(CF)c(=O)[nH]c3=O)cc2Cl)cc1C1CCCC1` , what is it?
Response: 112%

Prompt: And then `O=c1[nH]nc(Oc2c(Cl)cc(-n3nc(CF)c(=O)[nH]c3=O)cc2Cl)cc1C1CCC1` , what is it?
Response: 124%

All figures here come from patent US20230089582A1.
